Value source: patent US6444617B1

// Phytotoxicity Wh lookup, one value per entry
Test system: wheat
protocolText: Test Example 4: phytotoxicity to upland crop plants, treatment after emergence
Format: in vivo
statedConditions: dosage 5 kg/ha, sprayed after emergence, judged 14 days after treatment
observedProperty: Phytotoxicity Wh

mol=Cc1c(Cl)cccc1NC(=O)c1cc2sccc2nc1C(=O)NC1CCCC1 systemname=wheat recordedresult="4 (Crop-killing rate is 90-99%.)"
mol=CCNC(=O)c1nc2ncccc2cc1C(=O)Nc1c(CC)ccc(Cl)c1CC systemname=wheat recordedresult="4 (Crop-killing rate is 90-99%.)"
mol=CCCNC(=O)c1nc2cscc2cc1C(=O)Nc1c(CC)ccc(Cl)c1CC systemname=wheat recordedresult="5 (Crop-killing rate is 100%.)"
mol=CCc1ccc(Cl)c(CC)c1NC(=O)c1nc2ccccc2nc1C(=O)NCC(C)(C)C systemname=wheat recordedresult="4 (Crop-killing rate is 90-99%.)"
mol=CCCNC(=O)c1nc2c(cc1C(=O)Nc1c(CC)ccc(Cl)c1CC)CCO2 systemname=wheat recordedresult="5 (Crop-killing rate is 100%.)"
mol=CCc1ccc(Cl)c(CC)c1NC(=O)c1cc2ccccc2nc1C(=O)NC1CCCC1 systemname=wheat recordedresult="2 (Crop-killing rate is 40-69%.)"
mol=CCc1ccc(Cl)c(CC)c1NC(=O)c1cc2cc(OC)c(OC)cc2nc1C(=O)NCC(C)C systemname=wheat recordedresult="2 (Crop-killing rate is 40-69%.)"
mol=CCNC(=O)c1nc2sccc2cc1C(=O)Nc1c(CC)ccc(Cl)c1CC systemname=wheat recordedresult="5 (Crop-killing rate is 100%.)"

###

// Herbicidal effect Xs lookup, one value per entry
Test system: cocklebur (Xanthium strumarium L.), Xs
protocolText: Test Example 4: herbicidal effect on upland weeds after emergence
Assay type: in vivo
statedConditions: dosage 5 kg/ha; sprayed after emergence; judged 14 days after treatment
observedProperty: Herbicidal effect Xs

mol=CCc1ccc(Cl)c(CC)c1NC(=O)c1cc2c(nc1C(=O)NC1CCCC1)SCCC2 recordedresult="5 (Weed-killing rate is 100%.)"
mol=CCNC(=O)c1nc2sccc2cc1C(=O)Nc1c(CC)ccc(Cl)c1CC recordedresult="5 (Weed-killing rate is 100%.)"
mol=Cc1c(Cl)cccc1NC(=O)c1cc2ccoc2nc1C(=O)NC1CCCC1 recordedresult="4 (Weed-killing rate is 90-99%.)"
mol=CCCNC(=O)c1nc2c(cc1C(=O)Nc1c(CC)ccc(Cl)c1CC)OCCC2 recordedresult="5 (Weed-killing rate is 100%.)"
mol=CCCNC(=O)c1nc2occc2cc1C(=O)Nc1c(CC)ccc(Cl)c1CC recordedresult="5 (Weed-killing rate is 100%.)"
mol=CCc1ccc(Cl)c(CC)c1NC(=O)c1cc2ccccc2nc1C(=O)NCC(C)(C)C recordedresult="5 (Weed-killing rate is 100%.)"
mol=CCCNC(=O)c1nc2c(cc1C(=O)Nc1c(CC)ccc(Cl)c1CC)ncn2C recordedresult="5 (Weed-killing rate is 100%.)"
mol=CCCNC(=O)c1nc2cc(F)ccc2cc1C(=O)Nc1c(CC)ccc(Cl)c1CC recordedresult="4 (Weed-killing rate is 90-99%.)"
mol=CCCNC(=O)c1nc2nc(C)n(C)c2cc1C(=O)Nc1c(CC)ccc(Cl)c1CC recordedresult="5 (Weed-killing rate is 100%.)"
mol=Cc1c(Cl)cccc1NC(=O)c1cc2ccsc2nc1C(=O)NC1CCCC1 recordedresult="4 (Weed-killing rate is 90-99%.)"
mol=CCc1ccc(Cl)c(CC)c1NC(=O)c1cc2cc(OC)c(OC)cc2nc1C(=O)NCC(C)C recordedresult="3 (Weed-killing rate is 70-89%.)"
mol=CCCNC(=O)c1nc2c(cc1C(=O)Nc1c(CC)ccc(Cl)c1CC)CCCO2 recordedresult="5 (Weed-killing rate is 100%.)"
mol=CCNC(=O)c1nc2ccccc2cc1C(=O)Nc1c(CC)ccc(Cl)c1CC recordedresult="5 (Weed-killing rate is 100%.)"
mol=CCc1ccc(Cl)c(CC)c1NC(=O)c1nc2ccccc2nc1C(=O)NCC(C)C recordedresult="5 (Weed-killing rate is 100%.)"
mol=CCCNC(=O)c1nc2c(cc1C(=O)Nc1cccc(Cl)c1C)OCCC2 recordedresult="4 (Weed-killing rate is 90-99%.)"
mol=CCCNC(=O)c1nc2nn(C)cc2cc1C(=O)Nc1c(CC)ccc(Cl)c1CC recordedresult="5 (Weed-killing rate is 100%.)"
mol=CCc1ccc(Cl)c(CC)c1NC(=O)c1cc2ccccc2nc1C(=O)NC(C)(C)C recordedresult="5 (Weed-killing rate is 100%.)"
mol=CCCNC(=O)c1nc2cscc2cc1C(=O)Nc1c(CC)ccc(Cl)c1CC recordedresult="5 (Weed-killing rate is 100%.)"
